Target: Tryptase beta-1 (Homo sapiens)
Sequence (Q15661 whole entry): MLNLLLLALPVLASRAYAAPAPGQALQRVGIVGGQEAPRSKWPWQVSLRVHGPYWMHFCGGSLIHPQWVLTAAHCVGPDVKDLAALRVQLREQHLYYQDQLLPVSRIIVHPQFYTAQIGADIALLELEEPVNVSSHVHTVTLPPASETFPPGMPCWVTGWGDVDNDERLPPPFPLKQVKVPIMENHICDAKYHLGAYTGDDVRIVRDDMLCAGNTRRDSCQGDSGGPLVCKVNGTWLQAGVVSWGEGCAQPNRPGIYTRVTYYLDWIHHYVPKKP
measure name: pKi
Would you please state pKi, meaning minus log10 of the concentration in mol/L, as a bare number?

Recorded pKi, per entry:
molecule	experimental target	pKi
COC(=O)[C@@H](Cc1ccc(CN)cc1)NC(C)=O	Tryptase beta-1 (Homo sapiens)	3.67
COC(=O)C(Cc1cccc(CN)c1)NC(=O)CC[C@@H]1NC(=O)[C@@H](CC(=O)NCC(=O)NC(Cc2cccc(CN)c2)C(=O)OC)NC1=O (some centres undefined)	Tryptase beta-1 (Homo sapiens)	6.74
COC(=O)[C@@H](Cc1cccc(CN)c1)NC(C)=O	Tryptase beta-1 (Homo sapiens)	4.86

Qu. Please report the recorded pKi for COC(=O)C(Cc1cccc(CN)c1)NC(=O)CCNC(=O)C[C@@H]1NC(=O)[C@@H](CC(=O)NCCC(=O)NC(Cc2cccc(CN)c2)C(=O)OC)NC1=O (some centres undefined) .
Ans. 8.00
